target: PDE4B1 (Homo sapiens); construct: made in house; host or cells: SF21 insect cells (baculovirus; virus made in SF9 cells, pCR-Bac vector); experiment: Inhibition of PDE4 activity (PDE4B1, SPA assay); type: biochemical; settings: recombinant PDE4B1, 0.5 μM cAMP; read-out: PDE4B1 Inhibitory values measured as -logIC50 (converted)
Sequence (Q07343 whole entry): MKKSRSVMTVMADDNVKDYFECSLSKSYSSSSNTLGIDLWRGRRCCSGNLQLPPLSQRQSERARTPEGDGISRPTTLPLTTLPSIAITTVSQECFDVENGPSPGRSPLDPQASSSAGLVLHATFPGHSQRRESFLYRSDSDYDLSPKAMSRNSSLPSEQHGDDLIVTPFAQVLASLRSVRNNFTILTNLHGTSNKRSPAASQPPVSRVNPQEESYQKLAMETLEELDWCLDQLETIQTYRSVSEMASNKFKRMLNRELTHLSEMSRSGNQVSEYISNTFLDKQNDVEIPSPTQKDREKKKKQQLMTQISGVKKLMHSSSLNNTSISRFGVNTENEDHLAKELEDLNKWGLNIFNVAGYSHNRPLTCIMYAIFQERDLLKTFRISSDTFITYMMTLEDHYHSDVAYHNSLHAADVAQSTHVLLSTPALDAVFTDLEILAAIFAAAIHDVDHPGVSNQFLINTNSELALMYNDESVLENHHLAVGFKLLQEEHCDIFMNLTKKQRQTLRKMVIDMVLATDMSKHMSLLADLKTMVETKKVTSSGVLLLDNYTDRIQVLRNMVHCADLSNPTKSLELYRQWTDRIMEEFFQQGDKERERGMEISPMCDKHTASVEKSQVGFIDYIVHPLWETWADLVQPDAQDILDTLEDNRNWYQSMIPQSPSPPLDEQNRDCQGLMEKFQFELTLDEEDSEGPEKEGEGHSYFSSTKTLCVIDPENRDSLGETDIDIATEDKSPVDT
Item-by-item account of IC50

// worked examples, IC50 included
record_smiles=COc1ccc(C2=NN(C3CCN(C(=O)[C@H](Cc4ccccc4)NC(=O)c4c[nH]c5c(-c6c(OCC7CC7)ccc7c6OCO7)ncnc45)CC3)C(=O)C(C)(C)C2)cc1OC target_under_test="PDE4B1 (Homo sapiens)" value_type=IC50 measured_value="1 to 10 nM"
record_smiles=COc1ccc(C2=NN(C3CCN(C(=O)[C@@H](Cc4ccc(Cl)cc4)NC(=O)c4c[nH]c5c(-c6c(OCC7CC7)ccc7c6OCO7)ncnc45)CC3)C(=O)[C@@H]3CCCC[C@H]23)cc1OC target_under_test="PDE4B1 (Homo sapiens)" value_type=IC50 measured_value="1 to 10 nM"
record_smiles=COc1ccc(C2=NN(C3CCN(C(=O)[C@H](Cc4cccs4)NC(=O)c4c[nH]c5c(-c6c(OCC7CC7)ccc7c6OCO7)ncnc45)CC3)C(=O)[C@@H]3CCCC[C@H]23)cc1OC target_under_test="PDE4B1 (Homo sapiens)" value_type=IC50 measured_value="< 1 nM"
record_smiles=COc1ccc(C2=NN(C3CCN(C(=O)[C@H](NC(=O)c4c[nH]c5c(-c6c(OCC7CC7)ccc7c6OCO7)ncnc45)C(C)C)CC3)C(=O)[C@@H]3CCCC[C@H]23)cc1OC target_under_test="PDE4B1 (Homo sapiens)" value_type=IC50 measured_value="< 1 nM"
record_smiles=COc1ccc(C2=NN(C3CCN(C(=O)[C@H](CN(C)C)NC(=O)c4c[nH]c5c(-c6c(OCC7CC7)ccc7c6OCO7)ncnc45)CC3)C(=O)[C@@H]3CCCC[C@H]23)cc1OC target_under_test="PDE4B1 (Homo sapiens)" value_type=IC50 measured_value="1 to 10 nM"

Find the measured IC50 of COc1ccc(C2=NN(C3CCN(C(=O)[C@H](CO)NC(=O)c4c[nH]c5c(-c6c(OCC7CC7)ccc7c6OCO7)ncnc45)CC3)C(=O)[C@@H]3CCCC[C@H]23)cc1OC and report it.
< 1 nM

Find the measured IC50 of COc1ccc(C2=NN(C3CCN(C(=O)[C@H](Cc4ccncc4)NC(=O)c4c(C)[nH]c5c(-c6c(OCC7CC7)ccc7c6OCO7)ncnc45)CC3)C(=O)[C@@H]3CCCC[C@H]23)cc1OC and report it.
1 to 10 nM

Find the measured IC50 of COc1ccc(C2=NN(C3CCN(C(=O)[C@H](Cc4ccncc4)NC(=O)c4c[nH]c5c(-c6c(OCC7CC7)ccc7c6OCO7)ncnc45)CC3)C(=O)[C@@H]3CCCC[C@H]23)cc1OC and report it.
< 1 nM

Find the measured IC50 of COc1cc(OCC2CC2)c(-c2ncnc3c(C(=O)N[C@H](Cc4ccccc4)C(=O)N4CCC(N5N=C(c6ccc(OC)c(OC)c6)[C@H]6CCCC[C@H]6C5=O)CC4)c(C)[nH]c23)cc1F and report it.
1 to 10 nM

Find the measured IC50 of COc1ccc(C2=NN(C3CCN(C(=O)[C@H](CCC(=O)NC(C)C)NC(=O)c4c[nH]c5c(-c6c(OCC7CC7)ccc7c6OCO7)ncnc45)CC3)C(=O)[C@@H]3CCCC[C@H]23)cc1OC and report it.
1 to 10 nM
